- testSummary: NCI Yeast Anticancer Drug Screen. Data for the rad18 strain (AID 177)
- assayConditions: S. cerevisiae rad18 mutant growth inhibition; at 11.0 µM; active compounds read high
Compounds without any hit were thinned out: in the full panel of roughly 79,000, 15% have a hit.
Give measured growth inhibition for each item. Keep answers brief.
Supply the numeric figure in %, leaving out any unit text.

Record request: growth inhibition value, item Clc1c(Cl)c(Cl)c2c(nnn2C2CCCO2)c1Cl (stereo not drawn)
2

Record request: growth inhibition value, item C/C(=N\NC(=S)NC1CCCC1)c1ccccn1
98

Record request: growth inhibition value, item O=C(N/N=C\c1c(Cl)cccc1Cl)N/N=C/c1c(Cl)cccc1Cl
-11

Taken from PubChem BioAssay (NCI).
